Each recorded value in this set is attributed to paper PMC7464785.

assay: Pharmacokinetics after 1-min intravenous infusion to control, G-ARF and C-ARF rats; assay type: in vivo, Sprague–Dawley rats; conditions: Sprague-Dawley, rat, plasma, iv, 10 mg/kg, C-ARF rats, read-out: CL (time-averaged total body clearance)
MEASUREMENT_NAME: clearance (L/h/kg)
Express it in L/h/kg; write the number only.

**Q:** Provide one value: measured clearance of "C[C@@H]1CCN(C(=O)CC#N)C[C@@H]1N(C)c1ncnc2[nH]ccc12"
**A:** 0.882

###

test: Pharmacokinetics after oral administration to control, G-ARF and C-ARF rats; type: in vivo, Sprague–Dawley rats; conditions: Sprague-Dawley, rat, plasma, po, 20 mg/kg, C-ARF rats, read-out: CLR (time-averaged renal clearance)
MEASUREMENT_NAME: CL renal (mL/min/kg)
Express it in mL/min/kg; write the number only.

**Q:** Provide one value: measured CL renal of "C[C@@H]1CCN(C(=O)CC#N)C[C@@H]1N(C)c1ncnc2[nH]ccc12"
**A:** 0.3

###

assay: Pharmacokinetics after oral administration to control, G-ARF and C-ARF rats; type: in vivo, Sprague–Dawley rats; details: Sprague-Dawley, rat, plasma, po, 20 mg/kg, C-ARF rats, read-out: F (absolute oral bioavailability)
MEASUREMENT_NAME: bioavailability (%)
Express it in %; write the number only.

**Q:** Provide one value: measured bioavailability of "C[C@@H]1CCN(C(=O)CC#N)C[C@@H]1N(C)c1ncnc2[nH]ccc12"
**A:** 54.3

###

test: Pharmacokinetics after 1-min intravenous infusion to control, G-ARF and C-ARF rats; format: in vivo, Sprague–Dawley rats; settings: Sprague-Dawley, rat, plasma, iv, 10 mg/kg, G-ARF rats, read-out: CLR (time-averaged renal clearance)
MEASUREMENT_NAME: CL renal

**Q:** Provide one value: measured CL renal of "C[C@@H]1CCN(C(=O)CC#N)C[C@@H]1N(C)c1ncnc2[nH]ccc12"
**A:** 1.45 mL/min/kg

###

assay: Pharmacokinetics after 1-min intravenous infusion to control, G-ARF and C-ARF rats; format: in vivo, Sprague–Dawley rats; settings: Sprague-Dawley, rat, plasma, iv, 10 mg/kg, C-ARF rats
MEASUREMENT_NAME: MRT (h)
Express it in h; write the number only.

**Q:** Provide one value: measured MRT of "C[C@@H]1CCN(C(=O)CC#N)C[C@@H]1N(C)c1ncnc2[nH]ccc12"
**A:** 1.15

###

assay: Pharmacokinetics after 1-min intravenous infusion to control, G-ARF and C-ARF rats; format: in vivo, Sprague–Dawley rats; settings: Sprague-Dawley, rat, plasma, iv, 10 mg/kg, control rats, read-out: Vss
MEASUREMENT_NAME: Vd (L/kg)
Express it in L/kg; write the number only.

**Q:** Provide one value: measured Vd of "C[C@@H]1CCN(C(=O)CC#N)C[C@@H]1N(C)c1ncnc2[nH]ccc12"
**A:** 1.04

###

assay: Pharmacokinetics after 1-min intravenous infusion to control, G-ARF and C-ARF rats; format: in vivo, Sprague–Dawley rats; conditions: Sprague-Dawley, rat, plasma, iv, 10 mg/kg, control rats, read-out: Terminal half-life
MEASUREMENT_NAME: half-life (min)
Express it in min; write the number only.

**Q:** Provide one value: measured half-life of "C[C@@H]1CCN(C(=O)CC#N)C[C@@H]1N(C)c1ncnc2[nH]ccc12"
**A:** 39.4
